experimental details: NCI Yeast Anticancer Drug Screen. Data for the mlh1 rad18 strain (AID 175)
condition set: S. cerevisiae mlh1 rad18 strain growth inhibition; at 50.0 µM
Compounds without any hit were thinned out: in the full panel of roughly 79,000, 15% have a hit. The source made the active and inactive calls. Rule as the data show it: active = growth inhibition above about 70%; inactive = the rest.
The reply should name one outcome from active, inactive

A selection of reference data follows.
- molecule: "CCOc1nc2ccc(N)cc2s1"
  label value: "inactive"
- molecule: "CCNCC(=O)Nc1ccccc1C(=O)OCC"
  label value: "inactive"
- molecule: "CCCC(=O)N(C)c1ccccc1"
  label value: "inactive"
- molecule: "CCCCCCC#CC(=O)OC"
  label value: "inactive"
- molecule: "CN1C(=O)/C(=C2\\SC(=O)N(CN3CCCCC3)C2=O)c2cc(Br)ccc21"
  label value: "inactive"

// return assay outcome for CC(C)C(C)(O)CO (stereo not given) inactive

Consider next the molecule O=c1c2c(no[n+]2[O-])c2ccccc2n1-c1ccccc1 in the same way. active

Let us now turn to C[Si](C)(C)c1ccc(-c2ccccc2)cc1 inactive

Try CC1CCCN2C(=O)CN(Cc3ccccc3)CC(=O)N12 (stereo not given) next. inactive

Now try COc1cc(/C=C/C(=O)OC2C(O)C3CC(OC(=O)c4cc(OC)c(OC)c(OC)c4)CC2N3C)cc(OC)c1OC (stereo not given) . inactive

Could you do the same for COc1ccc(N2C(=O)c3c(C)ccc(C)c3C2=O)cc1 , please? inactive

BrC1(Br)C2CC/C=C/CCCCC21 (stereo not given) ? inactive
